Biological target: 5-LO (Homo sapiens)
Sequence (P09917 1-674): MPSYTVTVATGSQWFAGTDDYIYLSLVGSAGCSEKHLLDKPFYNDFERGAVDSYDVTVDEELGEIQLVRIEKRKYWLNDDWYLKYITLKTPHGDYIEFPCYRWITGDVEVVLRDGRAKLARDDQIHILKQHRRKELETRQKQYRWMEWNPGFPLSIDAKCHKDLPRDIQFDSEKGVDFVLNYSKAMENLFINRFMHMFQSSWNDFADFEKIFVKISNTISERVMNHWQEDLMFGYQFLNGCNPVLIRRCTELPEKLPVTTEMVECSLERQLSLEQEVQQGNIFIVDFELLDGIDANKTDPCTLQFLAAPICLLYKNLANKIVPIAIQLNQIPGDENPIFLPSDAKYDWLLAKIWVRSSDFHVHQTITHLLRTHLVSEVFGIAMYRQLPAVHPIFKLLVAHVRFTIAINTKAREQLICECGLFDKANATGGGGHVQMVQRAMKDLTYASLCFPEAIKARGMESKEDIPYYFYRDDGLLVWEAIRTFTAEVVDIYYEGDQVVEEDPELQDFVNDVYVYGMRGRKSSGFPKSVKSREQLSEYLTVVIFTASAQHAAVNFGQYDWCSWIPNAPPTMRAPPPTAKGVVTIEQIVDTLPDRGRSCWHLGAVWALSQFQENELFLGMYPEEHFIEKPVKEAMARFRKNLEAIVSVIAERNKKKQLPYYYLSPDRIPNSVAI
Assay: 5-LO product formation in intact human PMNL (neutrophils)
Format: cell-based
Set-up: endogenous in cells; host or cells: human PMNL from peripheral blood of healthy volunteers
Settings: Cell-based A23187 (IC50 of 5-LO product formation), intact human PMNL, […] A23187, 10 min
Reported metric: IC50 (nM)
Supply the numeric figure in nM, leaving out any unit text.

Compound	Units symbol	IC50
CCCCCCCCCCCCCCCc1cccc(O)c1O	nM	800

In plain terms, CCCC/C=C\CCCCCCCCCc1cccc(O)c1O [CI, (Z)-3-(pentadec-10′-enyl)-catechol] has a documented IC50 of 260

---

Target: 5-LO (Homo sapiens, UniProt P09917)
Sequence (P09917 1-674): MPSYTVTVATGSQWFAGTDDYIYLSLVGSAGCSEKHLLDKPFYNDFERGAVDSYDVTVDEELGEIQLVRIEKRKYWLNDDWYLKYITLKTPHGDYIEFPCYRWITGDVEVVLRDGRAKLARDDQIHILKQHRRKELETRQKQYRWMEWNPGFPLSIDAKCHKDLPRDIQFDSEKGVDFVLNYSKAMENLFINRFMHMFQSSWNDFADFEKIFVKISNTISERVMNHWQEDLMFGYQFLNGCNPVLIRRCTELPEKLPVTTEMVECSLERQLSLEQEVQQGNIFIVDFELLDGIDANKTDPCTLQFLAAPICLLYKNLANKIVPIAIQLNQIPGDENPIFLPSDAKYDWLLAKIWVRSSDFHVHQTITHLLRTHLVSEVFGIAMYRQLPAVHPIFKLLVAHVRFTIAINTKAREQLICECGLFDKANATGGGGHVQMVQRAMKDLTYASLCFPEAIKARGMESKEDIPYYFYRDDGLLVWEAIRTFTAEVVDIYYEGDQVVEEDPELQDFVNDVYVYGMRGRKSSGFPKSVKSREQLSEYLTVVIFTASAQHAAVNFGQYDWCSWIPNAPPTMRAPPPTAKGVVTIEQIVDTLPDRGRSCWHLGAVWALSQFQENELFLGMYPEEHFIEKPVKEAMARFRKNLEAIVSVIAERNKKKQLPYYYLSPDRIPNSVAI
Test: 5-LO product formation in intact human PMNL (neutrophils)
Assay type: cell-based
Design: endogenous in cells; host or cells: human PMNL from peripheral blood of healthy volunteers
Conditions: intact human PMNL, […] A23187 plus 20 μM AA, 10 min; read-out: Cell-based A23187 + AA (IC50 of 5-LO product formation)
Reported metric: pIC50
pIC50 here is simply -log10 of the concentration when that concentration is written in mol/L.

What the record says about `CCCC/C=C\CCCCCCCCCc1cccc(OC(C)=O)c1OC(C)=O` : pIC50 is 5.82

---

molecular target: 5-LO (Homo sapiens, UniProt P09917); experiment: 5-LO product formation in intact human PMNL (neutrophils); format: cell-based; design: endogenous in cells; host or cells: human PMNL from peripheral blood of healthy volunteers; details: Cell-based A23187 + AA (IC50 of 5-LO product formation), intact human PMNL, […] A23187 plus 20 μM AA, 10 min
Reported metric: pIC50
As a rule, pIC50 stands for the negative log10 of the concentration, concentration in M.

Molecule	pIC50
CCCC/C=C\CCCCCCCCCc1cccc(O)c1O [CI, (Z)-3-(pentadec-10′-enyl)-catechol]	7.05

Memo: CCCCCCCCCCCCCCCc1cccc(O)c1O [CS, 3-n-pentadecylcatechol] , reported pIC50: 7.15

---

Biological target: UniProt P09917
Sequence (P09917 1-674): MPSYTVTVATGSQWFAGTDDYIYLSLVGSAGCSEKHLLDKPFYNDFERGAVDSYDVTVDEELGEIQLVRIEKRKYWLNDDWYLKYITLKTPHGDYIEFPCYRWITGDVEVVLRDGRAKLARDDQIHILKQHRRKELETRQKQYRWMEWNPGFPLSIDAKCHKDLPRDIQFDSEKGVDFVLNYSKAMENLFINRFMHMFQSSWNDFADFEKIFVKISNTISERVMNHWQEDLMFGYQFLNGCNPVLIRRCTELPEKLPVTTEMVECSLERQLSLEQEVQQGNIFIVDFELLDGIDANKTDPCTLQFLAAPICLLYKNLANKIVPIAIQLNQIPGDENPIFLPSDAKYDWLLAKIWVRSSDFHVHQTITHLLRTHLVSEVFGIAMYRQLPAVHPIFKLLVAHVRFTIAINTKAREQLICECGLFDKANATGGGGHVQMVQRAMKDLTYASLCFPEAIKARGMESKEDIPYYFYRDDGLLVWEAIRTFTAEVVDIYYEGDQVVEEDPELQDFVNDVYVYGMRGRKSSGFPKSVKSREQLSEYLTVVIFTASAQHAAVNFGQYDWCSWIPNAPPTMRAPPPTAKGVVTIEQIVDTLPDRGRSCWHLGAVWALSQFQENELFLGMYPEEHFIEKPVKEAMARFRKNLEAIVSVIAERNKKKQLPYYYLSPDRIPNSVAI
Assay: cell-free 5-LO activity assay with purified human recombinant 5-LO
Type: biochemical
Parameters: made in house
Conditions: purified human recombinant 5-LO, 20 μM AA; read-out: Cell-free (IC50 of 5-LO activity)
pIC50: −log10 of the molar value.
Reported metric: pIC50

Smiles notation	pIC50
CCCC/C=C\CCCCCCCCCc1cccc(OC(C)=O)c1OC(C)=O	< 5.00

The compound listed as `CCCCCCCCCCCCCCCc1cccc(OC(C)=O)c1OC(C)=O` shows pIC50 equal to < 5.00

---

target: 12-LO (Homo sapiens); construct: endogenous in cells; host or cells: human PMNL preparations; assay: 12-LO product formation in intact human PMNL; type: cell-based; settings: PMNL, 2.5 μM A23187 plus 20 μM AA; read-out: LTC4
Sequence (P18054 whole entry): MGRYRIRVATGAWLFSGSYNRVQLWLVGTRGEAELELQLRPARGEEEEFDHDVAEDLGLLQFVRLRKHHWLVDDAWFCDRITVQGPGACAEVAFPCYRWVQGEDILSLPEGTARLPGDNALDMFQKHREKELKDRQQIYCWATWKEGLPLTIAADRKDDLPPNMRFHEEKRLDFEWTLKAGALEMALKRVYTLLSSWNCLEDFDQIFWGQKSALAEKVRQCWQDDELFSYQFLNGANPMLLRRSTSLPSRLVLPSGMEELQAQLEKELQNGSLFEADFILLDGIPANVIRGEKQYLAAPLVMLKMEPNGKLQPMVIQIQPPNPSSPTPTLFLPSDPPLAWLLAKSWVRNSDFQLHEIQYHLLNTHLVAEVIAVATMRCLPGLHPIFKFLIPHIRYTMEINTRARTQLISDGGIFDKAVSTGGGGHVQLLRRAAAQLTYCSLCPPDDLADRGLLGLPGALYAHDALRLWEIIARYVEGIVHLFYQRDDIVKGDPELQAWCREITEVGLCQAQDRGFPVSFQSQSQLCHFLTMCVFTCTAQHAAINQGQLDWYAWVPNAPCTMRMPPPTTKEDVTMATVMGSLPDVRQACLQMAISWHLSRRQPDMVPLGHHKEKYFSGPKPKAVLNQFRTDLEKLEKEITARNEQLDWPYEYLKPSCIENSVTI
pIC50: −log10 of the molar value.
Reported metric: pIC50

Smiles notation	pIC50
CCCCCCCCCCCCCCCc1cccc(OC(C)=O)c1OC(C)=O	< 5.00

Then this molecule:
For `CCCC/C=C\CCCCCCCCCc1cccc(OC(C)=O)c1OC(C)=O` the molecule record lists pIC50 as < 5.00

---

biological target: 5-LO (Homo sapiens, UniProt P09917); experiment: 5-LO product formation in intact human PMNL (neutrophils); format: cell-based; set-up: endogenous in cells; host or cells: human PMNL from peripheral blood of healthy volunteers; conditions: intact human PMNL, […] A23187, 10 min; read-out: Cell-based A23187 (IC50 of 5-LO product formation)
pIC50: −log10 of the molar value.
Reported metric: pIC50

In plain terms, `CCCC/C=C\CCCCCCCCCc1cccc(OC(C)=O)c1OC(C)=O` has a documented pIC50 of < 5.00
